Tested on: 556581-035-R-J1-PDC spheroids with HUVEC/MSC, viability
Assay: Anticancer human tumor 556581-035-R-J1-PDC patient-derived ovarian carcinoma cell line growth inhibition [IpAb]
Conditions: curve of first compound; second compound 0.0316 µM
pIC50: −log10 of the molar value.
measurementLabel: pIC50

compound="Cn1ncnc1[C@H]1c2n[nH]c(=O)c3cc(F)cc(c23)N[C@@H]1c1ccc(F)cc1 + CCN1CCN(Cc2ccc(Nc3ncc(F)c(-c4cc(F)c5nc(C)n(C(C)C)c5c4)n3)nc2)CC1" testedsystem="556581-035-R-J1-PDC spheroids with HUVEC/MSC, viability" experimentalvalue="< 7.00"
compound="CC(C)(C)c1cnc(CSc2cnc(NC(=O)C3CCNCC3)s2)o1 + CCN1CCN(Cc2ccc(Nc3ncc(F)c(-c4cc(F)c5nc(C)n(C(C)C)c5c4)n3)nc2)CC1" testedsystem="556581-035-R-J1-PDC spheroids with HUVEC/MSC, viability" experimentalvalue=6.94
compound="CCCS(=O)(=O)Nc1ccc(F)c(C(=O)c2c[nH]c3ncc(-c4ccc(Cl)cc4)cc23)c1F + CCN1CCN(Cc2ccc(Nc3ncc(F)c(-c4cc(F)c5nc(C)n(C(C)C)c5c4)n3)nc2)CC1" testedsystem="556581-035-R-J1-PDC spheroids with HUVEC/MSC, viability" experimentalvalue="< 5.00"

====

Tested on: 556581-035-R-J1-PDC spheroids with HUVEC/MSC, viability
Experiment: Anticancer human tumor 556581-035-R-J1-PDC cell line growth inhibition [IpAb];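 further: spheroids exposed to compounds for 7 days before readout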
Conditions: second compound 1 µM; first compound 10 µM; stronger effect = lower value
measurementLabel: viability, T/C (%)

compound="CCCS(=O)(=O)Nc1ccc(F)c(C(=O)c2c[nH]c3ncc(-c4ccc(Cl)cc4)cc23)c1F + CCN1CCN(Cc2ccc(Nc3ncc(F)c(-c4cc(F)c5nc(C)n(C(C)C)c5c4)n3)nc2)CC1" unitofmeasure=% experimentalvalue=59.8
compound="Cc1nc(NC(=O)N2CCCC2C(N)=O)sc1-c1ccnc(C(C)(C)C(F)(F)F)c1 (centres undefined) + CCN1CCN(Cc2ccc(Nc3ncc(F)c(-c4cc(F)c5nc(C)n(C(C)C)c5c4)n3)nc2)CC1" unitofmeasure=% experimentalvalue=9
compound="C=CC(=O)N1CCN(c2nc(=O)n(-c3c(C)ccnc3C(C)C)c3nc(-c4c(O)cccc4F)c(F)cc23)C(C)C1 (centres undefined) + CC(C)NCC(C(=O)N1CCN(c2ncnc3c2C(C)CC3O)CC1)c1ccc(Cl)cc1" unitofmeasure=% experimentalvalue=28.4
compound="Cn1nccc1Nc1nccc(-c2ccn(C(CO)c3ccc(Cl)c(F)c3)c(=O)c2)n1 (centres undefined) + CC(C)NCC(C(=O)N1CCN(c2ncnc3c2C(C)CC3O)CC1)c1ccc(Cl)cc1" unitofmeasure=% experimentalvalue=9.12

====

Test system: 556581-035-R-J1-PDC spheroids with HUVEC/MSC, viability
Assay: Anticancer human tumor 556581-035-R-J1-PDC cell line growth inhibition [IpAb];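 further: spheroids exposed to compounds for 7 days before readout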
Conditions: second compound 0.1 µM; first compound 0.1 µM; stronger effect = lower value
measurementLabel: viability, T/C

molecule="C=CCn1c(=O)c2cnc(Nc3ccc(N4CCN(C)CC4)cc3)nc2n1-c1cccc(C(C)(C)O)n1 + CC(C)NCC(C(=O)N1CCN(c2ncnc3c2C(C)CC3O)CC1)c1ccc(Cl)cc1" experimentalvalue=82.7%
molecule="CC(C)n1nc(-c2ccc3oc(N)nc3c2)c2c(N)ncnc21 + CCN1CCN(Cc2ccc(Nc3ncc(F)c(-c4cc(F)c5nc(C)n(C(C)C)c5c4)n3)nc2)CC1" experimentalvalue=20.2%
molecule="C=CC(=O)N1CCN(c2nc(=O)n(-c3c(C)ccnc3C(C)C)c3nc(-c4c(O)cccc4F)c(F)cc23)C(C)C1 (stereo not given) + CC(C)NCC(C(=O)N1CCN(c2ncnc3c2C(C)CC3O)CC1)c1ccc(Cl)cc1" experimentalvalue=108%
molecule="Cn1ncc(Cl)c1-c1cc(C(=O)NC(CN)Cc2cccc(F)c2)sc1Cl (stereo not given) + CC(C)NCC(C(=O)N1CCN(c2ncnc3c2C(C)CC3O)CC1)c1ccc(Cl)cc1" experimentalvalue=81.2%
molecule="Cn1ncnc1[C@H]1c2n[nH]c(=O)c3cc(F)cc(c23)N[C@@H]1c1ccc(F)cc1 + CC(C)NCC(C(=O)N1CCN(c2ncnc3c2C(C)CC3O)CC1)c1ccc(Cl)cc1" experimentalvalue=64.2%
